Assay: in vivo pharmacokinetics, mouse
Parameters: species or system male CD-1 mice
Settings: male, CD-1, mouse, plasma
Procedure: Pharmacokinetic properties of NTRC 3883-0 were determined in plasma following single oral (p.o.) and i.v. administration to male CD-1 mice (n = 6 per treatment group with three mice sampled per time point), Wistar rats (n = 3), cynomolgus monkey (n = 1) and Beagle dogs (n = 3). Formulations were prepared in DMSO, Kolliphor® EL, 5% D-mannitol in Elix water at a volume ratio of 1:1:8 for i.v. administration, and in 0.5% gelatin, 5% D-mannitol in Elix water for p.o. administration. […]
QUANTITY NAME: half-life (h)
Numbers only, in h.

input: Give the reported value of half-life for this record: `O=C1CN(C(=O)c2c(F)cccc2F)[C@H](c2cccc(Br)c2)N1O`
output: 5.2
